Cited source for all entries: PubChem BioAssay (NCATS)

# Test system: CASKI
# protocol description: Primary qHTS to identify gynecologic anti-cancer compounds using libraries of approved drugs and bioactive compounds (AID 1345084); note: % is set by controls: 0 for no effect and ±100 for the full control effect; nearly all actives have a fitted effect of over 55% in size
# test context: Gynecologic cancer cell panel viability, ATPlite luminescence, 48 h; series mostly up to 57.5 µM
Records with an inconclusive call do not appear. Activity calls are given as the source filed them. Calls come from the whole dose curve; as a rule, active = well fitted cell-killing curve with a large enough effect; inconclusive = small, poorly fitted or top-dose-only effect, or effect the other way; inactive = flat fitted curve, though single readings scatter.
recorded endpoint: activity change, negative = cytotoxicity

The examples below pair each entry with its known result.
>  <molecule>
C/C=C/C=C/C(=O)O[C@@H]1C=C2COC(=O)[C@]2(O)[C@@]2(C)CCCC(C)(C)[C@H]12

>  <activity change, negative = cytotoxicity>
inactive

$$$$
>  <molecule>
C[C@@H]1O[C@@H](O[C@H]2[C@H](OC(=O)[C@]34CCC(C)(C)C[C@H]3C3=CCC5[C@@]6(C)C[C@H](O)[C@H](O[C@@H]7O[C@H](CO)[C@@H](O)[C@H](O)[C@H]7O)[C@](CO)(C(=O)O)C6CC[C@@]5(C)[C@]3(C)C[C@H]4O)OC[C@H](O)[C@@H]2O)[C@H](O)[C@H](O)[C@H]1O[C@@H]1OC[C@@H](O)[C@H](O[C@@H]2OC[C@](O)(CO)[C@H]2O)[C@H]1O (stereo partly specified)

>  <activity change, negative = cytotoxicity>
-28.8% [at 6.55 µM] (inactive)

$$$$
>  <molecule>
c1cc(-c2cnn3cc(-c4ccc(N5CCNCC5)cc4)cnc23)c2cccnc2c1

>  <activity change, negative = cytotoxicity>
inactive

$$$$
>  <molecule>
CC1(C)CCC2(C(=O)OC3OC(COC4OC(CO)C(O)C(O)C4O)C(O)C(O)C3O)CCC3(C)C(=CCC4C5(C)CCC(OC6OCC(O)C(O)C6O)C(C)(C)C5CCC43C)C2C1O (stereo unspecified)

>  <activity change, negative = cytotoxicity>
-6.34% [at 11.6 µM] (inactive)

$$$$

Reported activity change, negative = cytotoxicity, molecule `CCC(CC)Nc1nc(C)c(-c2ccc(OC(F)(F)F)cc2OC)nc1OC` : ____
inactive

Reported activity change, negative = cytotoxicity, molecule `CC(C)CCNc1ncccc1C(=O)N1CCN(Cc2ccccc2)CC1` : ____
inactive

====

# Tested on: HaCat
# protocol description: Cytotoxic Profiling of Annotated Libraries Using Quantitative High-Throughput Screening (AID 1296008); note: nearly all actives have a fitted effect of over 60% in size; note: potency is the fitted concentration of half-maximal effect
# test context: Five cell lines viability, CellTiter-Glo ATP luminescence, 48-72 h
Records with an inconclusive call do not appear. Activity calls are given as the source filed them. Calls come from the whole dose curve; as a rule, active = well fitted inhibition curve with a large enough effect; inconclusive = small, poorly fitted or top-dose-only effect; inactive = flat fitted curve, though single readings scatter.
recorded endpoint: Potency

The examples below pair each entry with its known result.
>  <molecule>
O=C(CN1C2=NCCN2c2ccccc21)c1ccc(-c2ccccc2)cc1

>  <tested target>
HaCat

>  <Potency>
16.4 µM (active)

$$$$
>  <molecule>
O=S(=O)(Nc1cc(Cl)c(Oc2cnc3ccccc3c2)c(Cl)c1)c1ccc(Cl)cc1Cl

>  <tested target>
HaCat

>  <Potency>
inactive

$$$$
>  <molecule>
CCCn1cc2c(nc(NC(=O)Nc3ccc(OC)cc3)n3nc(-c4ccco4)nc23)n1

>  <tested target>
HaCat

>  <Potency>
inactive

$$$$
>  <molecule>
CCN(CC)CCCCCCNc1cc(OC)cc2c(C)ccnc12

>  <tested target>
HaCat

>  <Potency>
inactive

$$$$

Reported Potency, molecule C=C1C(=O)O[C@@H]2/C=C(\CO)CC/C=C(\CO)[C@H](OC(C)=O)C(OC(=O)C(C)CC)C12 (stereo not given in full) : ____
inactive
